# IC50 (nM), inhibition of hK1 enzyme activity per record follows
experimental-system: hK1 (human tissue kallikrein 1), recombinant (human, UniProt P06870 25-262)
test-protocol: cell-based or functional assay
Express your answer in nM, writing the number without its unit.

Consider the worked cases shown below.
binder	unit-label	measured-number
M0110-F08 (Fab, V domains shown) VH: EVQLLESGGGLVQPGGSLRLSCAASGFTFSNYVMYWVRQAPGKGLEWVSGIGPSGGFTTYADSVKGRFTISRDNSKNTLYLQMNSLRAEDTAVYYCTRDRYFGSGYYMAAYYYYGMDVWGQGTTVTVSS VL: DIQMTQSPGTLSLSPGERATLSCRASQSVVSNFLAWYQQKPGQAPRLLIYGASSRATGIPDRFSGSGSGTDFILTISRLEPEDFAVYYCQQYGSSPYSFGQGTKLEIKR	nM	44
M0111-D11 (Fab, V domains shown) VH: EVQLLESGGGLVQPGGSLRLSCAASGFTFSWYAMMWVRQAPGKGLEWVSSIWPSGGHTKYADSVKGRFTISRDNSKNTLYLQMNSLRAEDTAVYYCATDQGYFWGQGTLVTVSS VL: DIQMTQSPATLSLSPGDRATLSCRASQRVSSTFLAWYQQRPGQAPRLVIFGTSSRATGIPDRFSGSGSGTDFTLTISRLEPEDFAVYYCHQYGSSPRTFGQGTKVEIKR	nM	160

Now let's try a different one.
[ask] Provide only the value of recorded IC50 (nM), inhibition of hK1 enzyme activity for M0139-A09 (Fab, V domains shown) VH: EVQLLESGGGLVQPGGSLRLSCAASGFTFSWYFMVWVRQAPGKGLEWVSGIGPSGGLTTYADSVKGRFTISRDNSKNTLYLQMNSLRAEDTAVYYCARSDWLNYWGQGTLVTVSS VL: DIVMTQTPPSLPVNPGEPASISCRSSQSLVYSDGNTYLNWFQQRPGQSPRRLIYKVSNRDSGVPDRFSGSGSGTDFTLKISRVEAEDVGVYYCMQGTHWQRLTFGGGTKVEIKR
[reply] 34

Every entry's value here was drawn from patent US7329737.
